Taken from patent US20140309229A1.

- System: COLO-678
- Method summary: MTS proliferation assay
- Format: cell-based, human
- Test parameters: Homo sapiens, COLO-678, 72 h
Endpoint name: IC50

Under COLO-678, report IC50 for C[C@@]1(C(=O)Nc2ccc(F)nc2)CCCN1c1nc(Nc2cc(C3CC3)n[nH]2)c2cccn2n1
192 nM

###

- Tested on: KM12SM
- Method summary: MTS proliferation assay
- Assay type: cell-based, human
- Test parameters: Homo sapiens, 72 h
Endpoint name: pIC50
Answers are plain numbers, as −log10 of the molar value.

Return value of pIC50 for input C[C@@]1(C(=O)Nc2ccc(F)nc2)CCCN1c1nc(Nc2cc(C3CC3)n[nH]2)c2cccn2n1 [BMS-754807] , no commentary.
7.43
